Tested on: JAK2V617F-mutated HEL cells
Test: Cell proliferation and colony formation in HEL cells
Format: cell-based
Settings: Homo sapiens
quantity measured: pIC50
// pIC50: -log10(molar conc.)

get_value(item= Cn1c(=O)n(-c2ccc(C(C)(C)C#N)cc2)c2c3cc(-c4cnc5ccccc5c4)ccc3ncc21 , readout=pIC50) returns 6.41

Reference for the values: patent US9358229B2
